- EXPERIMENTAL_DETAILS: in vitro
PROPERTY_NAME: CC50

Query block: May I ask what CC50 has been recorded for NC(=O)c1ncn([C@@H]2O[C@H](CO)[C@@H](O)[C@H]2O)n1 [Ribavirin] ?
Result block: > 348 µM
